Values were extracted from patent US4341868A.

Test system: xanthine oxidase
Protocol notes: Substrate specificity (formed hydrogen peroxide, Method II)
Type: biochemical, Enterobacter cloacae
Protocol conditions: conclusion from Table 1
Assay endpoint: activity of xanthine oxidase on substrate (in words)

These recorded examples may help you get a feel for the data.
>  <Compound>
O=c1[nH]c(=O)c2[nH]cnc2[nH]1 [Xanthine]

>  <Reported measurement>
strong activity

$$$$
>  <Compound>
c1ncc2[nH]cnc2n1 [Purine]

>  <Reported measurement>
strong activity

$$$$
>  <Compound>
Nc1nc2nc[nH]c2c(=O)[nH]1 [Guanine]

>  <Reported measurement>
strong activity

$$$$
>  <Compound>
O=c1[nH]cnc2nc[nH]c12 [Hypoxanthine]

>  <Reported measurement>
strong activity

$$$$

# context switch: different compound, same activity of xanthine oxidase on substrate (in words)
### Prompt Any idea what activity of xanthine oxidase on substrate (in words) was measured for Oc1ncc2[nH]cnc2n1 [2-Hydroxypurine] ?
### Response strong activity

* * *

// reported Inhibition rate for each item listed
Tested on: xanthine oxidase
Protocol notes: Inhibition of xanthine oxidase (Method I)
Assay type: biochemical, Enterobacter cloacae
Protocol conditions: inhibitor 1 × 10^-6 M
Procedure: The reaction is carried out at 37° C. for ten minutes. […] The thus obtained value is defined as OD283. This value corresponds to the amount of uric acid formed. […] Xanthine oxidase activity is determined in the same manner as in Method I except that 0.25 U/ml xanthine oxidase solution is used and various enzyme inhibitors are added.
// note: answer is a bare numeric in %

Below are worked cases with known answers.
>  <Molecule>
[Cl][Cu] [CuCl]

>  <Assay endpoint>
Inhibition rate

>  <Reported measurement>
2.2

$$$$
>  <Molecule>
O=[N+]([O-])[O-].[Ag+] [AgNO3]

>  <Assay endpoint>
Inhibition rate

>  <Reported measurement>
54.8

$$$$
>  <Molecule>
O=C1O[C@H]([C@@H](O)CO)C(O)=C1O [L-ascorbic acid]

>  <Assay endpoint>
Inhibition rate

>  <Reported measurement>
0

$$$$
>  <Molecule>
O.O.[Cl][Cu][Cl] [CuCl2.2H2 O]

>  <Assay endpoint>
Inhibition rate

>  <Reported measurement>
12.9

$$$$

### Prompt GET /values?readout=Inhibition rate&system=xanthine oxidase&item= O=C([O-])c1cc[c]([Hg][Cl])cc1.[Na+] [PCMB]
### Response 0
